Molecular target: BaF3 cells expressing KDR (Homo sapiens, UniProt P35968, cells depend on it, form not given)
Sequence (P35968 20-1356 limits assumed, change not shown): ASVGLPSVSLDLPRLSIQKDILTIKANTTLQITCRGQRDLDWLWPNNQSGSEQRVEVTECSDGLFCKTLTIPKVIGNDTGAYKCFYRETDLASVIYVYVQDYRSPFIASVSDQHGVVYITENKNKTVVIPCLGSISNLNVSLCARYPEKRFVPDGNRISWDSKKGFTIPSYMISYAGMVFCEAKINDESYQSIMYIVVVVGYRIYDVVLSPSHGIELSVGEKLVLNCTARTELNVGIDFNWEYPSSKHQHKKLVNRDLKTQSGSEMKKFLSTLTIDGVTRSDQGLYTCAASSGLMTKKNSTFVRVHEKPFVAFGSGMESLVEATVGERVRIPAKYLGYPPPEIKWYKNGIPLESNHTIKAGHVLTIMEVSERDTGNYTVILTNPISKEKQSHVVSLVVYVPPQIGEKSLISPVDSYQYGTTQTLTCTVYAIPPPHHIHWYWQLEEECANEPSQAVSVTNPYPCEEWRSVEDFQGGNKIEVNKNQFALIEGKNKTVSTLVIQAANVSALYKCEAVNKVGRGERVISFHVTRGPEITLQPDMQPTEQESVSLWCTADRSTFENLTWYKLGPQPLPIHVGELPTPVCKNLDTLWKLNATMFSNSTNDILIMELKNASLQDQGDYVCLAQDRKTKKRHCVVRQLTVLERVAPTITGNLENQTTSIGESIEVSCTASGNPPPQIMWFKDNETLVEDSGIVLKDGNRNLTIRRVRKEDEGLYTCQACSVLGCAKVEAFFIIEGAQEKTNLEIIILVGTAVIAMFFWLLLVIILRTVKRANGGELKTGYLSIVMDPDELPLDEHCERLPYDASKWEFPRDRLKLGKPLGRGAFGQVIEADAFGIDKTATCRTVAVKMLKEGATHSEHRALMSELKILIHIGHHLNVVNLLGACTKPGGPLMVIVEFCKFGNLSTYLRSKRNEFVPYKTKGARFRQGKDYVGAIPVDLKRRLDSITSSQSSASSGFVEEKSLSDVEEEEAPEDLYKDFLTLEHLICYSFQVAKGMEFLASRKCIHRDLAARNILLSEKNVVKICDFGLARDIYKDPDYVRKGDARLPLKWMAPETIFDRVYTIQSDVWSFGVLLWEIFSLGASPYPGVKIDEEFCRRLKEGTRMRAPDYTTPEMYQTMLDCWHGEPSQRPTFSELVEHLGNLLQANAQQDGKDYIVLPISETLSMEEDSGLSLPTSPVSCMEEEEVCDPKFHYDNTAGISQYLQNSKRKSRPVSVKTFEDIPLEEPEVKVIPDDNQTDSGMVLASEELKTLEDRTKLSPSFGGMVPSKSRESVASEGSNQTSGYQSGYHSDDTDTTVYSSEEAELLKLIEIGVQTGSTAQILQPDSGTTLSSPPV
Details: read-out: KDR Cell IC50; 48 hours incubation
Observable: IC50 (nM)

                                   compound  measurement
0  CC(C)n1nc(-c2ccc3cc(C(=O)Nc4nccs4)[nH]c3c2)c2c(N)ncnc21 [Example 37]          702
1  CC(C)(C)n1nc(-c2ccc3cc(C(=O)NCC(F)(F)F)[nH]c3c2)c2c(N)ncnc21 [Example 11]         4260

---

Biological target: BaF3 cells expressing KIF5B-RET (Homo sapiens)
Sequence (P07949 29-1114 limits assumed, change not shown): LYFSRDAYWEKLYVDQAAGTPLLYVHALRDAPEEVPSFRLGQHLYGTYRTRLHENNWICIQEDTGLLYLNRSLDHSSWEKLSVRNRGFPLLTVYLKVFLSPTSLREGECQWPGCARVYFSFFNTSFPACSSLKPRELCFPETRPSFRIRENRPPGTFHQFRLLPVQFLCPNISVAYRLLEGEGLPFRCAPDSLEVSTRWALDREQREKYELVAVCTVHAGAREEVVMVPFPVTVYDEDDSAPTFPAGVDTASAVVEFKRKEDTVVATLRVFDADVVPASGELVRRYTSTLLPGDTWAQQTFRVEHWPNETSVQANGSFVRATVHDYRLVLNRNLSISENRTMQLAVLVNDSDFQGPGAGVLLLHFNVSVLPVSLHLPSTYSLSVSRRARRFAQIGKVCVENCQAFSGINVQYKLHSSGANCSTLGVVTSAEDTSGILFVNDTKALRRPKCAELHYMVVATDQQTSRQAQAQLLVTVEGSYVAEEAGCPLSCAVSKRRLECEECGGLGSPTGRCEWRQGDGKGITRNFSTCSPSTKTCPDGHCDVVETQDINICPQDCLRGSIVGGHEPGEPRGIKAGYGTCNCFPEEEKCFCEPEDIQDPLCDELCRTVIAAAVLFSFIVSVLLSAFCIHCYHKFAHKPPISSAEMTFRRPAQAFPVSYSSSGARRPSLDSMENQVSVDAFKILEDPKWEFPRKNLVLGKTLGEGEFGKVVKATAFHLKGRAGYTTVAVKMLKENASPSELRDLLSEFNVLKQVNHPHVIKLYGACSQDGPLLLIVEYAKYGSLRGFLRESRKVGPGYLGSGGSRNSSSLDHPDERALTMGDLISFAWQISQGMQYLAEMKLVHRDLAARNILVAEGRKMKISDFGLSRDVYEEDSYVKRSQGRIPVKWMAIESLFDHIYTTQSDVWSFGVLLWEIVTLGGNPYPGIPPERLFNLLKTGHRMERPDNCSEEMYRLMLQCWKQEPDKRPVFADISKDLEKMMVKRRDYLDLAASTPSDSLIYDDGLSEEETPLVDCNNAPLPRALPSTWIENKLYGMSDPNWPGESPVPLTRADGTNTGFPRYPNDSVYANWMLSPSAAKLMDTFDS
Assay: BaF3 cell assay, KIF5B-RET (CellTiter-Glo viability)
Details: 48 hours incubation
pIC50: −log10 of the molar value.
pIC50 overview
Observable: pIC50

                           molecular_string                            assayed_target  observable  measurement
0  Cc1csc(NC(=O)c2cc3ccc(-c4nn(C(C)(C)C)c5ncnc(N)c45)cc3[nH]2)n1  BaF3 cells expressing KIF5B-RET (Homo sapiens)       pIC50         6.04
1  CNC(=O)c1cc2ccc(-c3nn(C4CC4)c4ncnc(N)c34)cc2[nH]1  BaF3 cells expressing KIF5B-RET (Homo sapiens)       pIC50         6.65
2  CC(C)(C)n1nc(-c2ccc3cc(C(=O)Nc4nccs4)[nH]c3c2)c2c(N)ncnc21  BaF3 cells expressing KIF5B-RET (Homo sapiens)       pIC50         7.08
